conditions: in acetone, 318.15 K
MEASURE: solubility (mole fraction)
Respond numerically, and do not add a unit to the figure.

Input line: Tell me the measured solubility (mole fraction) of OCC1(O)OC[C@@H](O)[C@@H](O)[C@H]1O (stereo partly specified) , please.
Output line: 0.0049

---

conditions: in n-pentanol, 288.15 K
MEASURE: solubility (mole fraction)
Respond numerically, and do not add a unit to the figure.

Input line: Tell me the measured solubility (mole fraction) of OCC1(O)OC[C@@H](O)[C@@H](O)[C@H]1O (stereo partly specified) , please.
Output line: 0.00134

---

conditions: in ethyl acetate, 323.15 K
MEASURE: solubility (mole fraction)
Respond numerically, and do not add a unit to the figure.

Input line: Tell me the measured solubility (mole fraction) of OCC1(O)OC[C@@H](O)[C@@H](O)[C@H]1O (stereo partly specified) , please.
Output line: 0.00449

---

details: in ethyl formate, 313.15 K
MEASURE: solubility (mole fraction)
Respond numerically, and do not add a unit to the figure.

Input line: Tell me the measured solubility (mole fraction) of OCC1(O)OC[C@@H](O)[C@@H](O)[C@H]1O (stereo partly specified) , please.
Output line: 0.00193

---

details: in 2-butanone, 298.15 K
MEASURE: solubility (mole fraction)
Respond numerically, and do not add a unit to the figure.

Input line: Tell me the measured solubility (mole fraction) of OCC1(O)OC[C@@H](O)[C@@H](O)[C@H]1O (stereo partly specified) , please.
Output line: 0.00144

---

details: in acetonitrile, 313.15 K
MEASURE: solubility (mole fraction)
Respond numerically, and do not add a unit to the figure.

Input line: Tell me the measured solubility (mole fraction) of OCC1(O)OC[C@@H](O)[C@@H](O)[C@H]1O (stereo partly specified) , please.
Output line: 0.00109

---

details: in n-butanol, 318.15 K
MEASURE: solubility (mole fraction)
Respond numerically, and do not add a unit to the figure.

Input line: Tell me the measured solubility (mole fraction) of OCC1(O)OC[C@@H](O)[C@@H](O)[C@H]1O (stereo partly specified) , please.
Output line: 0.00747

---

conditions: in 2-butanone, 288.15 K
MEASURE: solubility (mole fraction)
Respond numerically, and do not add a unit to the figure.

Input line: Tell me the measured solubility (mole fraction) of OCC1(O)OC[C@@H](O)[C@@H](O)[C@H]1O (stereo partly specified) , please.
Output line: 0.000587

---

conditions: in n-hexanol, 293.15 K
MEASURE: solubility (mole fraction)
Respond numerically, and do not add a unit to the figure.

Input line: Tell me the measured solubility (mole fraction) of OCC1(O)OC[C@@H](O)[C@@H](O)[C@H]1O (stereo partly specified) , please.
Output line: 0.000961

---

conditions: in ethyl formate, 283.15 K
MEASURE: solubility (mole fraction)

Input line: Tell me the measured solubility (mole fraction) of OCC1(O)OC[C@@H](O)[C@@H](O)[C@H]1O (stereo partly specified) , please.
Output line: 0.000243

---

details: in acetone, 288.15 K
MEASURE: solubility (mole fraction)
Respond numerically, and do not add a unit to the figure.

Input line: Tell me the measured solubility (mole fraction) of OCC1(O)OC[C@@H](O)[C@@H](O)[C@H]1O (stereo partly specified) , please.
Output line: 0.000752

---

conditions: in methyl acetate, 283.15 K
MEASURE: solubility (mole fraction)
Respond numerically, and do not add a unit to the figure.

Input line: Tell me the measured solubility (mole fraction) of OCC1(O)OC[C@@H](O)[C@@H](O)[C@H]1O (stereo partly specified) , please.
Output line: 0.000227

---

conditions: in acetone, 308.15 K
MEASURE: solubility (mole fraction)
Respond numerically, and do not add a unit to the figure.

Input line: Tell me the measured solubility (mole fraction) of OCC1(O)OC[C@@H](O)[C@@H](O)[C@H]1O (stereo partly specified) , please.
Output line: 0.00299

---

conditions: in n-butanol, 283.15 K
MEASURE: solubility (mole fraction)

Input line: Tell me the measured solubility (mole fraction) of OCC1(O)OC[C@@H](O)[C@@H](O)[C@H]1O (stereo partly specified) , please.
Output line: 0.00111

---

conditions: in ethyl acetate, 298.15 K
MEASURE: solubility (mole fraction)

Input line: Tell me the measured solubility (mole fraction) of OCC1(O)OC[C@@H](O)[C@@H](O)[C@H]1O (stereo partly specified) , please.
Output line: 0.00173

---

conditions: in sec-butanol, 298.15 K
MEASURE: solubility (mole fraction)
Respond numerically, and do not add a unit to the figure.

Input line: Tell me the measured solubility (mole fraction) of OCC1(O)OC[C@@H](O)[C@@H](O)[C@H]1O (stereo partly specified) , please.
Output line: 0.00324

---

conditions: in sec-butanol, 303.15 K
MEASURE: solubility (mole fraction)
Respond numerically, and do not add a unit to the figure.

Input line: Tell me the measured solubility (mole fraction) of OCC1(O)OC[C@@H](O)[C@@H](O)[C@H]1O (stereo partly specified) , please.
Output line: 0.0045

---

conditions: in methyl acetate, 293.15 K
MEASURE: solubility (mole fraction)

Input line: Tell me the measured solubility (mole fraction) of OCC1(O)OC[C@@H](O)[C@@H](O)[C@H]1O (stereo partly specified) , please.
Output line: 0.000389

---

details: in n-propanol, 323.15 K
MEASURE: solubility (mole fraction)
Respond numerically, and do not add a unit to the figure.

Input line: Tell me the measured solubility (mole fraction) of OCC1(O)OC[C@@H](O)[C@@H](O)[C@H]1O (stereo partly specified) , please.
Output line: 0.0121

---

conditions: in sec-butanol, 313.15 K
MEASURE: solubility (mole fraction)

Input line: Tell me the measured solubility (mole fraction) of OCC1(O)OC[C@@H](O)[C@@H](O)[C@H]1O (stereo partly specified) , please.
Output line: 0.0079

---

conditions: in acetonitrile, 318.15 K
MEASURE: solubility (mole fraction)

Input line: Tell me the measured solubility (mole fraction) of OCC1(O)OC[C@@H](O)[C@@H](O)[C@H]1O (stereo partly specified) , please.
Output line: 0.00139

---

details: in methanol, 308.15 K
MEASURE: solubility (mole fraction)

Input line: Tell me the measured solubility (mole fraction) of OCC1(O)OC[C@@H](O)[C@@H](O)[C@H]1O (stereo partly specified) , please.
Output line: 0.0512

---

settings: in sec-butanol, 308.15 K
MEASURE: solubility (mole fraction)
Respond numerically, and do not add a unit to the figure.

Input line: Tell me the measured solubility (mole fraction) of OCC1(O)OC[C@@H](O)[C@@H](O)[C@H]1O (stereo partly specified) , please.
Output line: 0.00617

---

conditions: in acetonitrile, 288.15 K
MEASURE: solubility (mole fraction)
Respond numerically, and do not add a unit to the figure.

Input line: Tell me the measured solubility (mole fraction) of OCC1(O)OC[C@@H](O)[C@@H](O)[C@H]1O (stereo partly specified) , please.
Output line: 0.000283

---

details: in n-propanol, 293.15 K
MEASURE: solubility (mole fraction)
Respond numerically, and do not add a unit to the figure.

Input line: Tell me the measured solubility (mole fraction) of OCC1(O)OC[C@@H](O)[C@@H](O)[C@H]1O (stereo partly specified) , please.
Output line: 0.00234

---

conditions: in methanol, 283.15 K
MEASURE: solubility (mole fraction)
Respond numerically, and do not add a unit to the figure.

Input line: Tell me the measured solubility (mole fraction) of OCC1(O)OC[C@@H](O)[C@@H](O)[C@H]1O (stereo partly specified) , please.
Output line: 0.0162

---

details: in n-butyl acetate, 303.15 K
MEASURE: solubility (mole fraction)
Respond numerically, and do not add a unit to the figure.

Input line: Tell me the measured solubility (mole fraction) of OCC1(O)OC[C@@H](O)[C@@H](O)[C@H]1O (stereo partly specified) , please.
Output line: 0.000796

---

conditions: in acetonitrile, 323.15 K
MEASURE: solubility (mole fraction)
Respond numerically, and do not add a unit to the figure.

Input line: Tell me the measured solubility (mole fraction) of OCC1(O)OC[C@@H](O)[C@@H](O)[C@H]1O (stereo partly specified) , please.
Output line: 0.00176

---

settings: in 2-butanone, 323.15 K
MEASURE: solubility (mole fraction)

Input line: Tell me the measured solubility (mole fraction) of OCC1(O)OC[C@@H](O)[C@@H](O)[C@H]1O (stereo partly specified) , please.
Output line: 0.00552

---

conditions: in n-hexanol, 303.15 K
MEASURE: solubility (mole fraction)

Input line: Tell me the measured solubility (mole fraction) of OCC1(O)OC[C@@H](O)[C@@H](O)[C@H]1O (stereo partly specified) , please.
Output line: 0.00216

---

conditions: in ethyl formate, 288.15 K
MEASURE: solubility (mole fraction)
Respond numerically, and do not add a unit to the figure.

Input line: Tell me the measured solubility (mole fraction) of OCC1(O)OC[C@@H](O)[C@@H](O)[C@H]1O (stereo partly specified) , please.
Output line: 0.000356

Cited source for all entries: BigSolDB 2.1
